- TARGET UNDER TEST: EGFR L858R/C797S (Homo sapiens, UniProt P00533, C797S/L858R)
- Sequence (P00533 25-1210 C797S/L858R): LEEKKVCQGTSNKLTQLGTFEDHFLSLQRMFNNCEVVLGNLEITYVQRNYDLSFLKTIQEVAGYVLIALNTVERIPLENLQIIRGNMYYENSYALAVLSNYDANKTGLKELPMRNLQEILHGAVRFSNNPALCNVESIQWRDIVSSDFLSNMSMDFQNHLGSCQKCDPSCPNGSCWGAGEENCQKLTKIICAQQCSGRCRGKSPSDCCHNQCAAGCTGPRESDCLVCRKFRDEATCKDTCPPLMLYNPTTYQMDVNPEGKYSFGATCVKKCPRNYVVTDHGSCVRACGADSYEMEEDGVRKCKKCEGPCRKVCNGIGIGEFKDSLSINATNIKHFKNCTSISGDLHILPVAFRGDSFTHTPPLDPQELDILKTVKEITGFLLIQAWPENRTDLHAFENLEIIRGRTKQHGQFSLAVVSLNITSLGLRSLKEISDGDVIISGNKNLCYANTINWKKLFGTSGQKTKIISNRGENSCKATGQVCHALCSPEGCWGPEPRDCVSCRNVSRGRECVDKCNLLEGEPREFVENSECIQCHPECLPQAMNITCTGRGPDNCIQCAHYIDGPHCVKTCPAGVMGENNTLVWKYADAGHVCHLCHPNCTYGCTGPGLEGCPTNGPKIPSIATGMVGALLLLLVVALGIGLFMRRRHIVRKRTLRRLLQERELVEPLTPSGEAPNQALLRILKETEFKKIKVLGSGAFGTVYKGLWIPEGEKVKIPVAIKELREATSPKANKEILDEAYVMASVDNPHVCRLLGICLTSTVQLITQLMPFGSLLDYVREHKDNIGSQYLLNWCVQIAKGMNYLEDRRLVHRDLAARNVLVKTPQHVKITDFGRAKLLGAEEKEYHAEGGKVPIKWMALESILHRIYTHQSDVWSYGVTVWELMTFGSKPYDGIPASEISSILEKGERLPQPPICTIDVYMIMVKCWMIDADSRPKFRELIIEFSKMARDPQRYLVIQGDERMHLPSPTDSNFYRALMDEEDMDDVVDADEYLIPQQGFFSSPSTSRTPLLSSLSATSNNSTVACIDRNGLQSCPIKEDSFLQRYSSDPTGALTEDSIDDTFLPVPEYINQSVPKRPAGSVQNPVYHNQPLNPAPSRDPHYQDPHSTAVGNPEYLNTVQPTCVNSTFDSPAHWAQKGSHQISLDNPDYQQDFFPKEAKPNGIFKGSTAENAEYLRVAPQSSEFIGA
- METHOD NOTES: Biochemical EGFR kinase assay (Lance Ultra TR-FRET), double mutant L858R/C797S
- CONDITIONS USED: Km ATP; read-out: IC50 L858R/C797S (nM) Km ATP
Classify on IC50 using Low = under 4 nM, Mid = from 4 nM up to 30 nM, High = 30 nM and over

CN(C)CC1(C)CCC(Nc2cc(Nc3ccnc(-c4cnn(S(=O)(=O)C5CC5)c4)n3)ncc2-c2ccn(C(F)F)n2)CC1 (centres unmarked) [Example 207] | Mid
Cc1cnn(-c2cnc(Nc3ccnc(-c4cnn(S(=O)(=O)C5CC5)c4)n3)cc2N[C@H]2CC[C@@](C)(O)CC2)c1 [Example 184] | Low
O=S(=O)(C1CC1)n1cc(-c2nccc(Nc3cc(N[C@H]4CC[C@](O)(CO)CC4)c(-c4csc(N5CCOCC5)n4)cn3)n2)cn1 [Example 125] | Mid
O=S(=O)(C1CC1)n1cc(-c2nccc(Nc3cc(OC4CCC(O)CC4)c(-c4cnn(C(F)F)c4)cn3)n2)cn1 (centres unmarked) [Example 71] | Low
Cn1ccc(-c2cnc(Nc3ccnc(-c4cnn(S(=O)(=O)C5CC5)c4)n3)cc2NCC2(C)CCC(O)CC2)n1 (centres unmarked) [Example 127] | Mid
O=C1CC[C@]2(CC[C@H](Nc3cc(Nc4ccnc(-c5cnn(S(=O)(=O)C6CC6)c5)n4)ncc3-c3ccn(C(F)F)n3)CC2)N1 [Example 19] | Low
O=S(=O)(C1CC1)n1cc(-c2nccc(Nc3cc(N[C@H]4CC[C@@H](CCO)CC4)c(-c4ccn(C(F)F)n4)cn3)n2)cn1 [Example 135] | Mid
Cn1ccc(-c2cnc(Nc3ccnc(-c4cnn(S(=O)(=O)C5CC5)c4)n3)cc2N[C@H]2CC[C@]3(CCC(=O)N3)CC2)n1 [Example 44] | Low
C[C@]1(O)CC[C@@H](Nc2cc(Nc3ccnc(-c4cnn(CC(F)(F)F)c4)n3)ncc2-c2ccn(C(F)F)n2)CC1 [Example 137] | High
COCCn1cc(-c2nccc(Nc3cc(N[C@H]4CC[C@@](C)(O)CC4)c(-c4ccn(C(F)F)n4)cn3)n2)cn1 [Example 138] | Mid

Please report the category associated with CN[C@H]1CC[C@@H](Nc2cc(Nc3ccnc(-c4cnn(S(=O)(=O)C5CC5)c4)n3)ncc2-c2ccn(C)n2)CC1 [Example 88] , nothing else. Low

Please report the category associated with CC(C)Nc1cc(Nc2ccnc(-c3cnn(S(=O)(=O)C4CC4)c3)n2)ncc1-c1ccn(C(F)F)n1 [Example 144] , nothing else. Mid

Please report the category associated with CN(CC(F)F)C(=O)[C@H]1CC[C@@H](Nc2cc(Nc3ccnc(-c4cnn(S(=O)(=O)C5CC5)c4)n3)ncc2-c2ccn(C)n2)CC1 [Example 235] , nothing else. Low

Please report the category associated with O=S(=O)(C1CC1)n1cc(-c2nccc(Nc3cc(NC[C@H]4CC[C@H](CO)CC4)c(-c4ccn(C(F)F)n4)cn3)n2)cn1 [Example 22] , nothing else. Mid

Please report the category associated with CN(C)C[C@H]1C[C@H](CNc2cc(Nc3ccnc(-c4cnn(S(=O)(=O)C5CC5)c4)n3)ncc2-c2ccn(CC(F)F)n2)C1 [Example 249] , nothing else. Mid

Please report the category associated with C[C@]1(O)CC[C@@H](Nc2cc(Nc3ccnc(-c4cnn(S(=O)(=O)N5CCCC5)c4)n3)ncc2-c2ccn(C(F)F)n2)CC1 [Example 323] , nothing else. High

Please report the category associated with Cn1nc(-c2cnc(Nc3ccnc(-c4cnn(CC(F)F)c4)n3)cc2NN2CCC(O)CC2)cc1C(F)(F)F [Example 163] , nothing else. High

Please report the category associated with CN(C)C[C@H]1CC[C@@H](Nc2cc(Nc3ccnc(-c4cnn(S(=O)(=O)C5CC5)c4)n3)ncc2-c2cc3n(n2)CCCC3)CC1 [Example 277] , nothing else. Low

Please report the category associated with CC(=O)N1CC=C(c2nccc(Nc3cc(N[C@H]4CC[C@@](C)(O)CC4)c(-c4ccn(C(F)F)n4)cn3)n2)CC1 [Example 159] , nothing else. High

Please report the category associated with CC1(O)CCC(Nc2cc(Nc3ccnc(-c4cnn(C5CCCCO5)c4)n3)ncc2-c2ccn(C(F)F)n2)CC1 (centres unmarked) [Example 314] , nothing else. High

Please report the category associated with O=S(=O)(C1CC1)n1cc(-c2nccc(Nc3cc(N[C@H]4CC[C@H](O)C4)c(-c4ccn(C(F)F)n4)cn3)n2)cn1 [Example 20] , nothing else. Low

Please report the category associated with Cc1nn(C)c(F)c1-c1nccc(Nc2cc(N[C@H]3CC[C@@](C)(O)CC3)c(-c3ccn(C(F)F)n3)cn2)n1 [Example 319] , nothing else. Mid

Please report the category associated with CS(=O)(=O)N1CC=C(c2nccc(Nc3cc(N[C@H]4CC[C@@](C)(O)CC4)c(-c4ccn(C(F)F)n4)cn3)n2)CC1 [Example 156] , nothing else. High

Please report the category associated with O=S(=O)(C1CC1)n1cc(-c2nccc(Nc3cc(N[C@H]4CC[C@@H](F)CC4)c(-c4ccn(CCC(F)(F)F)n4)cn3)n2)cn1 [Example 306] , nothing else. High

Please report the category associated with CCC(C)Nc1cc(Nc2ccnc(-c3cnn(S(=O)(=O)C4CC4)c3)n2)ncc1-c1ccn(C(F)F)n1 (centres unmarked) [Example 210] , nothing else. Mid
